IC50 (read off the curve): recorded values
systemUnderTest: T1, human PD-L1 on cells (PHA-activated human T cells); PD-L1-transfected CHO-S cells; A375 melanoma cells; … (human, UniProt Q9NZQ7 19-290)
T1 construct: whole, on cells; also called PD-L1 expressing T cells; PD-L1 expressing CHO-S cells
T1 sequence (Q9NZQ7 19-290): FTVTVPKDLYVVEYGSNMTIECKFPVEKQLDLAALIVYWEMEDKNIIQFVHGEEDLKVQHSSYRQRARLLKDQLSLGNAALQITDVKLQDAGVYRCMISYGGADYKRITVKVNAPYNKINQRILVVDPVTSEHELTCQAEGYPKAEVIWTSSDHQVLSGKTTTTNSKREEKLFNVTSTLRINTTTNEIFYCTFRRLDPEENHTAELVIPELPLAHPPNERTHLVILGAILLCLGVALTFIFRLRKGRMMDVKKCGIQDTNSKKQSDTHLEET
experimentalProtocol: flow cytometry blocking assay: PD-L1 expressing CHO-S cells incubated with antibody, then biotin-labeled PD-1-Fc and streptavidin-PE; MFI of bound PD-1

Which value of IC50 (read off the curve) has been reported for PL15 (full-length, N297A mutant human IgG1) (antibody, V domains shown) VH: QVQLVQSGAEVKKPGSSVKVSCKASGGTFSSYTISWVRQAPGQGLEWMGRIIPILGIANYAQKFQGRVTITADKSTSTAYMELSSLRSEDTAVYYCARSRDGYSFGAFDIWGQGTLVTVSS VL: QSVLTQPPSVSGAPGQRVTISCTGYSSNIGAGYDVHWYQHLPGTAPKLLIYGNSNRPSGVPDRFSGSKSGTSASLAITGLQAEDEADYYCQSYDNSLSVSVFGGGTKLTVLG in the records?
~0.06 µg/mL

Follow-up entry: PL2 (full-length, N297A mutant human IgG1) (antibody, V domains shown) VH: EVQLVQSGGGLVKPGGSLRLSCAASGFTFSSYTMNWVRQAPGKGLEWVSSISSGSDYLYYADSVKGRFTISRDNAKNSLYLQMNSLRAEDTAVYYCARNELRWYPQAGAFDIWGQGTMVTVSS VL: QSVVTQPPSMSAAPGQNVTISCSGSSSYIESSYVSWYQQLPGTAPRLLIYDDDMRPSGIPDRFSGSKSGTSATLAITGLQTGDEADYYCEIWDSGLGGVFGGGTKLTVLS
~0.05 µg/mL

Check PL12 (full-length, N297A mutant human IgG1) (antibody, V domains shown) VH: QVQLVQSGAEVKKPGSSVKVSCKASGGTFSSYAISWVRQAPGQGLEWMGRIIPILGIANYAQKFQGRVTITADKSTSTAYMELSSLRSEDTAVYYCARGIGSYSFGAFDIWGQGTMVTVSS VL: QSVLTQPPSVSGAPGQRVTISCTRSSSNIGAGHDVHWYQQLPGTAPKLLIYGNSNRPSGVPDRFSGSKSGTSASLAITGLQAEDGADYYCQSYDSSLTGVVFGGGTKLTVLG too.
~0.2 µg/mL

Moving on to PL6 (full-length, N297A mutant human IgG1) (antibody, V domains shown) VH: EVQLVQSGAEVKKPGSSVKVSCKASGGTFSSYTINWVRQAPGQGLEWVGKIIPILGIADYAQMFKGRVTITADKFTSTVYMELNSLRSEDTAVYYCARGGYVGYLNAFDIWGQGTMVTVSS VL: QSVVTQPPSVSGAPGQRVTISCTGSSSNIGAGYDVHWYQQLPGTAPKLLIYGNSNRPSGVPDRFSGSKSGTSASLAITGLQAEDEADYYCQSYDSSLSGGVFGGGTKLTVLG
~0.03 µg/mL
